# procedure_summary: Dipeptide cleavage half time in PBS on model hexapeptide (HPLC / LC-MS)
# assay_setup: buffer
Where a SMILES comes first, the peptide text is derived from it. [ ]: non-standard residue; d: D form. Ac3c = NC1(C(=O)O)CC1
So I've got a bunch of molecules here, and I need their half-life values.
One number for each entry, in days.

Solved entries:
- C[C@@H](O)[C@H](NC(=O)CNC(=O)[C@H](CCCNC(=N)N)NC(=O)[C@H](CO)NC(=O)[C@H](Cc1c[nH]cn1)NC(=O)[C@@H](N)Cc1ccc(NC(=O)[C@@H]2CCCN2C(=O)CO)cc1)C(=O)N[C@@H](Cc1ccccc1)C(N)=O: 25.1
- C[C@@H](O)[C@H](NC(=O)CNC(=O)[C@H](CCCNC(=N)N)NC(=O)[C@H](CO)NC(=O)[C@H](Cc1c[nH]cn1)NC(=O)[C@@H]1CCCN1C(=O)C1(N)CC1)C(=O)N[C@@H](Cc1ccccc1)C(N)=O [Peptide 18] (H-[Ac3c]PHSRGTF-NH2): 0.417

# evaluate next
// half-life value for "C[C@@H](O)[C@H](NC(=O)CNC(=O)[C@H](CCCNC(=N)N)NC(=O)[C@H](CO)NC(=O)[C@H](Cc1c[nH]cn1)NC(=O)[C@@H](N)Cc1ccc(NC(=O)[C@@H]2CCCN2C(=O)CN)cc1)C(=O)N[C@@H](Cc1ccccc1)C(N)=O" : 3
